# SUBJECT OF TEST: HLA-B*08:01
# TEST NAME: IEDB peptide-MHC binding, purified MHC/direct/fluorescence; filed as Kd, often an IC50 or EC50 that approximates it; bounds were set here for any values at or beyond the usual limits of such assays
# TEST CONTEXT: source organism: Yersinia pestis
pKd: −log10 of the molar value.
READOUT: pKd

input_sequence=RQLESRLGY recorded_result="≤ 4.70"

Name the recorded pKd of the sequence listed here: MQLQLNCAY
≤ 4.70

----------
# SUBJECT OF TEST: HLA-A*32:07
# TEST NAME: IEDB peptide-MHC binding, purified MHC/competitive/fluorescence; filed as Kd, often an IC50 or EC50 that approximates it; bounds were set here for any values at or beyond the usual limits of such assays
# TEST CONTEXT: source organism: Campylobacter jejuni subsp. jejuni NCTC 11168 = ATCC 700819
READOUT: Kd
// unit must come after the numeric part

Name the recorded Kd of the sequence listed here: YMKKRYEEF
232 nM

----------
# SUBJECT OF TEST: HLA-A*03:01
# TEST NAME: IEDB peptide-MHC binding, purified MHC/direct/fluorescence; filed as Kd, often an IC50 or EC50 that approximates it; bounds were set here for any values at or beyond the usual limits of such assays
# TEST CONTEXT: source organism: Vibrio cholerae
pKd: −log10 of the molar value.
READOUT: pKd

Using HLA-A*03:01 as the test system, report measured pKd of RPRIRLSAP .
≤ 4.70

----------
# SUBJECT OF TEST: HLA-B*15:01
# TEST NAME: IEDB peptide-MHC binding, purified MHC/competitive/fluorescence; bounds were set here for any values at or beyond the usual limits of such assays
# TEST CONTEXT: source organism: Variola virus
READOUT: pIC50
Numbers only, as −log10 of the molar value.

Name the recorded pIC50 of the sequence listed here: RVNPGTYVY
5.04

----------
# SUBJECT OF TEST: HLA-B*46:01
# TEST NAME: IEDB peptide-MHC binding, purified MHC/competitive/fluorescence; filed as Kd, often an IC50 or EC50 that approximates it; bounds were set here for any values at or beyond the usual limits of such assays
# TEST CONTEXT: source organism: Campylobacter jejuni subsp. jejuni NCTC 11168 = ATCC 700819
READOUT: Kd (nM)
Answers are plain numbers, in nM.

Name the recorded Kd of the sequence listed here: YMKKRYEEF
188

----------
Kindly supply the reported pKd values for the records listed here.
# SUBJECT OF TEST: HLA-A*03:01
# TEST NAME: IEDB peptide-MHC binding, purified MHC/direct/fluorescence; filed as Kd, often an IC50 or EC50 that approximates it; bounds were set here for any values at or beyond the usual limits of such assays
# TEST CONTEXT: source organism: Escherichia coli O157:H7
Answers are plain numbers, as −log10 of the molar value.

Solved cases (2 shown):
input_sequence=RFNVPGTWR subject_of_test=HLA-A*03:01 recorded_result=5.72
input_sequence=ATREGKHGK subject_of_test=HLA-A*03:01 recorded_result=6.52

Now consider a different sequence.
Name the recorded pKd of the sequence listed here: SVAPGTDFR
6.30

----------
# SUBJECT OF TEST: HLA-C*15:02
# TEST NAME: IEDB peptide-MHC binding, purified MHC/direct/fluorescence; filed as Kd, often an IC50 or EC50 that approximates it; bounds were set here for any values at or beyond the usual limits of such assays
# TEST CONTEXT: source organism: Haemophilus influenzae R2846
READOUT: Kd

Name the recorded Kd of the sequence listed here: TSDEIYMTF
≥ 20 µM

Sourced from the Immune Epitope Database (IEDB)
